- Tested on: UM-SCC-74B
- procedureDetails: 6-day MTT cell growth, UM-SCC-74B
- Format: cell-based, human
- testParameters: read-out: IC50, inhibition of cell growth
- Description: UM-SCC and human fibroblast cell lines were continuously exposed to varying concentrations of (−)-gossypol in 6-day MTT cell survival assays. Control wells contained media (DMEM) with vehicle alone. For each data point n=5. […] Logarithmically growing cell lines were cultured, washed, counted, and plated at 5,000-15,000 cells per well in duplicate wells of 96-well plates and incubated in DMEM overnight. […] Percent absorbance relative to control was plotted as a linear function of drug concentration.
observationType: pIC50
Scale note: pIC50 = -log10(concentration in M).

{"molecule": "N.N.[Cl][Pt][Cl] [Cisplatin, cisplatin, reference compound]", "pIC50": 4.92}

Would you kindly look at the next entry?
The molecule Cc1cc2c(C(C)C)c(O)c(O)c(C=O)c2c(O)c1-c1c(C)cc2c(C(C)C)c(O)c(O)c(C=O)c2c1O [(−)-gossypol] showed pIC50 equal to 5.40

###

- Test system: UM-SCC-1
- procedureDetails: 6-day MTT cell growth, UM-SCC-1
- Assay type: cell-based, human
- testParameters: read-out: IC50, inhibition of cell growth
observationType: IC50 (µM)
Entry rule: numbers only, all in µM.

IC50 value, target or system UM-SCC-1, for N.N.[Cl][Pt][Cl] [Cisplatin, cisplatin, reference compound] : 30

###

- System: Fib-2 (fibroblast cell line 2)
- procedureDetails: 6-day MTT cell growth, Fib-2
- Assay type: cell-based, human
- testParameters: read-out: IC50, inhibition of cell growth
observationType: IC50 (µM)
# number only, unit µM dropped from output

Measured IC50 of Cc1cc2c(C(C)C)c(O)c(O)c(C=O)c2c(O)c1-c1c(C)cc2c(C(C)C)c(O)c(O)c(C=O)c2c1O [(−)-gossypol] : 20

###

Listing of recorded IC50 by entry.
- Tested on: UM-SCC-17B
- procedureDetails: 6-day MTT cell growth, UM-SCC-17B
- Format: cell-based, human
- testParameters: read-out: IC50, inhibition of cell growth
Response body: numeric value in µM, unit text excluded.

{"molecule": "N.N.[Cl][Pt][Cl] [Cisplatin, cisplatin, reference compound]", "targetEntity": "UM-SCC-17B", "observationType": "IC50", "unitOfMeasure": "µM", "valueReported": 13}

Next up:
Measured IC50 of Cc1cc2c(C(C)C)c(O)c(O)c(C=O)c2c(O)c1-c1c(C)cc2c(C(C)C)c(O)c(O)c(C=O)c2c1O [(−)-gossypol] : 5

###

- Tested on: Fib-1 (fibroblast cell line 1)
- procedureDetails: 6-day MTT cell growth, Fib-1
- Type: cell-based, human
- testParameters: read-out: IC50, inhibition of cell growth
observationType: IC50 (µM)
Lab book: enter the figure in µM, no units written.

Simply: Cc1cc2c(C(C)C)c(O)c(O)c(C=O)c2c(O)c1-c1c(C)cc2c(C(C)C)c(O)c(O)c(C=O)c2c1O [(−)-gossypol] , Fib-1 (fibroblast cell line 1), IC50 = 20

###

pIC50: recorded values
- System: UM-SCC-25
- procedureDetails: 6-day MTT cell growth, UM-SCC-25
- Type: cell-based, human
- testParameters: read-out: IC50, inhibition of cell growth
# pIC50: negative log10 of molar concentration; output just the value

For this compound ( N.N.[Cl][Pt][Cl] [Cisplatin, cisplatin, reference compound] ), measured pIC50 is 4.37

Entry Cc1cc2c(C(C)C)c(O)c(O)c(C=O)c2c(O)c1-c1c(C)cc2c(C(C)C)c(O)c(O)c(C=O)c2c1O [(−)-gossypol] — recorded pIC50 = 5.10
